// data source = the Human Domainome abundance scans (Beltran et al. 2025)

B1: Membrane-associated guanylate kinase, WW and PDZ domain-containing protein 1, residues 352 to 401; numbered along this chain, Q96QZ7 (parent)
chain: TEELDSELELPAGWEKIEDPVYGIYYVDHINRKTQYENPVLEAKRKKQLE

Variants of: B1
Assay: abundance fitness (aPCA) (normalised: wild type 0, dead -1); higher = more abundant; growth selection in yeast, the domain comes from the species named
Conditions: Homo sapiens
EXPERIMENTAL_READOUT: abundance fitness

According to the records, this variant `D28V` displays abundance fitness of -1.24

According to the records, this variant `L4K` displays abundance fitness of 0.019
